Tested on: U2OS
Measurement protocol: Multiplex assay against U2OS
Type: toxicity, cell-based
Test parameters: human, 12 h, 1 µM, compound concentration 1 uM, replicate 2
Rule: Population Apoptotic (%) below 80% gives Condition met, anything at or above gives Condition not met.

Observe how each entry below is paired with its result.
{"Compound string": "CC(C)(C)c1ccc(CSc2cnn(C(C)(C)C)c(=O)c2Cl)cc1", "Qualitative label": "Condition met"}
{"Compound string": "Cc1cc(O)c(-c2ccc([C@@H](C)CN(C)C)cc2)c2c1[nH]c(=O)c1sccc12", "Qualitative label": "Condition met"}
{"Compound string": "CCc1nn2c(C)cc(C)nc2c1Cc1ccc(-c2nnc(C3CCNCC3)o2)cc1", "Qualitative label": "Condition not met"}

Exam item: For CN1CCC(C(=O)c2cccc(NC(=O)c3c(F)cc(F)cc3F)n2)CC1 , is the recorded Population Apoptotic (%) below the cut-off of 80%?
Marked response: Condition met

Exam item: For Cn1cc(C(=O)OCC2CCN(CCNS(C)(=O)=O)CC2)c2ccccc21 , is the recorded Population Apoptotic (%) below the cut-off of 80%?
Marked response: Condition met

###

Test system: HEK-293T
Measurement protocol: Multiplex assay against HEK293T
Type: toxicity, cell-based
Test parameters: human, 12 h, 1 µM, compound concentration 1 uM, replicate 2
Readout kind: Population Healthy Nuclei (%)
Give bare numbers, in %.

{"Compound": "O=c1ccc2ccc(OCCCCN3CCN(c4cccc5sccc45)CC3)cc2[nH]1", "Readout kind": "Population Healthy Nuclei (%)", "Unit symbol": "%", "Value measured": 80}

Could you tell me Population Healthy Nuclei (%) for each of these compounds? They are listed below.
1. O=C(NCCNCC(O)COc1ccc(O)cc1)N1CCOCC1.O=C(NCCNCC(O)COc1ccc(O)cc1)N1CCOCC1.O=C(O)/C=C/C(=O)O (stereo not drawn) [XAMOTEROL FUMARATE]
2. O=C(Nc1cc(-c2ccccc2)nn1-c1ccccc1F)c1ccc([N+](=O)[O-])cc1

Marked response:
76
83

Could you tell me Population Healthy Nuclei (%) for each of these compounds? They are listed below.
1. COc1cc(Nc2ncc3c(n2)-c2ccc(Cl)cc2C(c2c(F)cccc2OC)=NC3)ccc1C(=O)O
2. CC(F)(F)CN1CCOc2c(nn(-c3ccccc3Cl)c2-c2ccc(Cl)cc2)C1=O
3. C=CCN1C[C@H](C(=O)N(CCCN(C)C)C(=O)NCC)C[C@@H]2c3cccc4[nH]cc(c34)C[C@H]21
4. COc1cc(OC2CCN(C(C)=O)CC2)ccc1C(=O)N1CCC(N2C(=O)OCc3ccccc32)CC1
5. Cl.Cl.OCCOCCN1CCN(C(c2ccccc2)c2ccc(Cl)cc2)CC1 (stereo not drawn) [HYDROXYZINE HYDROCHLORIDE]

Marked response:
1. 85
2. 78
3. 79
4. 76
5. 84

###

Test system: Fibroblast
Measurement protocol: Multiplex assay against human fibroblast
Assay type: toxicity, cell-based
Test parameters: 12 h, 10 µM, compound concentration 10 uM, replicate 2
Readout kind: Total Cell Count
Answers are plain numbers.

Recorded results for 3 molecules are shown here.
{"Compound string": "Nc1nc(CC(=O)Nc2ccc(CCNC[C@H](O)c3ccccc3)cc2)cs1", "Target desc": "Fibroblast", "Value measured": 137}
{"Compound string": "COc1c(Nc2ccc(S(C)(=O)=O)nc2C)ncnc1OC1CCN(C(=O)OC(C)C)CC1", "Target desc": "Fibroblast", "Value measured": 100}
{"Compound string": "COc1cc(OC2CCN(C(C)=O)CC2)ccc1C(=O)N1CCC(N2C(=O)OCc3ccccc32)CC1", "Target desc": "Fibroblast", "Value measured": 134}

// moving on: another record for Total Cell Count
Lab book: Total Cell Count of CCCCC[C@H](O)/C=C/[C@H]1[C@H](O)CC(=O)[C@@H]1CCCCCCC(=O)O noted as 146

Attribution: ChEMBL document CHEMBL5058577
